Source listed as patent US8747537B2.

Assay: Solubility test in low-polarity solvents (saturated solution, λmax, solubility, εC)
Type: physicochemical
Conditions: n-decane
compounds and their reported εC (molar extinction coefficient × concentration of saturated solution)
recorded metric: εC (molar extinction coefficient × concentration of saturated solution) (cm⁻¹)

| compound | measured value |
| --- | --- |
| CCCCC(CC)CN(CC(CC)CCCC)c1ccc(/N=N/c2snc(C)c2C#N)c(C(C)C)c1 (centres unmarked) | 8300 |
| CCCCC(CC)CN(CC(CC)CCCC)c1cc(C)c(/N=N/c2snc(C)c2C#N)cc1OC (centres unmarked) | 2300 |
| CCCCC(CC)CN(CC(CC)CCCC)c1ccc(N=Nc2snc(C)c2C#N)c(NC(C)=O)c1 (centres unmarked) | 6600 |
| CCCCC(CC)CN(CC(CC)CCCC)c1ccc(/N=N/c2snc(C)c2C#N)c(NC(=O)CC)c1 (centres unmarked) | 11000 |
| CCCCC(CC)CN(CC(CC)CCCC)c1ccc(/N=N/c2snc(CC)c2C#N)c(C)c1 (centres unmarked) | 5700 |
| CCCCC(CC)CN(CC(CC)CCCC)c1ccc(/N=N/c2sc(C(=O)OCC)c(C)c2C(=O)OCC)c(NC(=O)CC)c1 (centres unmarked) | 5700 |
| CCCCc1nsc(/N=N/c2ccc(N(CC(C)C)CC(C)C)cc2NC(C)=O)c1C#N | 4100 |
| CCCCC(CC)CN(CC(CC)CCCC)c1ccc(/N=N/c2sc(C(=O)OCC)c(C)c2C(=O)OCC)c(C)c1 (centres unmarked) | 3200 |

* * *

Assay: Light fastness test (retention of dye after 2 hours of high-pressure mercury lamp irradiation)
Type: physicochemical
Settings: tetradecane; 1 mg in 250 mL, 2 hours irradiation
molecules and their reported Light fastness: retention of dye
recorded metric: Light fastness: retention of dye (%)

| molecule | recorded metric | measured value |
| --- | --- | --- |
| CCCCC(CC)CN(CC(CC)CCCC)c1ccc(/N=N/c2snc(CC)c2C#N)c(C)c1 (stereo not shown) | Light fastness: retention of dye | 82 |
| CCCCC(CC)CN(CC(CC)CCCC)c1ccc(N=Nc2snc(C)c2C#N)c(NC(C)=O)c1 (stereo not shown) | Light fastness: retention of dye | 94 |
| CCCCC(CC)CN(CC(CC)CCCC)c1ccc(/N=N/c2sc(C(=O)OCC)c(C)c2C(=O)OCC)c(NC(=O)CC)c1 (stereo not shown) | Light fastness: retention of dye | 81 |
| CCCCC(CC)CNc1ccc(NCC(CC)CCCC)c2c1C(=O)c1ccccc1C2=O (stereo not shown) [Comparative dye 2, reference compound] | Light fastness: retention of dye | 99 |

* * *

Assay: Solubility test in low-polarity solvents (saturated solution, λmax, solubility, εC)
Assay type: physicochemical
Conditions: Isopar G
recorded metric: εC (cm⁻¹)

| compound | measured value |
| --- | --- |
| CCCCC(CC)CN(CC(CC)CCCC)c1ccc(N=Nc2snc(CC)c2C#N)c(NC(C)=O)c1 (centres unmarked) [Dye 10] | 18600 |
| CCCCC(CC)CN(CC(CC)CCCC)c1ccc(/N=N/c2sc(C(=O)OCC)c(C)c2C(=O)OCC)c(NC(=O)CC)c1 (centres unmarked) [Dye 7] | 6000 |
| CCCCC(CC)CNc1ccc(NCC(CC)CCCC)c2c1C(=O)c1ccccc1C2=O (centres unmarked) [Comparative dye 2, reference compound] | 1200 |
| CCCCC(CC)CN(CC(CC)CCCC)c1ccc(N=Nc2snc(C)c2C#N)c(NC(C)=O)c1 (centres unmarked) [Dye 2] | 5000 |
| CCCCC(CC)CN(CC(CC)CCCC)c1ccc(/N=N/c2snc(C)c2C#N)c(NC(=O)CC)c1 (centres unmarked) [Dye 9] | 11500 |
| CCCCC(CC)CN(CC(CC)CCCC)c1ccc(/N=N/c2snc(CC)c2C#N)c(C)c1 (centres unmarked) [Dye 4] | 4900 |
| CCCCC(CC)CN(CC(CC)CCCC)c1ccc(/N=N/c2snc(C)c2C#N)c(CC)c1 (centres unmarked) [Dye 8] | 3600 |
